# targetUnderTest: Arginase-2, mitochondrial (Homo sapiens) (UniProt P78540)
# Sequence (whole entry): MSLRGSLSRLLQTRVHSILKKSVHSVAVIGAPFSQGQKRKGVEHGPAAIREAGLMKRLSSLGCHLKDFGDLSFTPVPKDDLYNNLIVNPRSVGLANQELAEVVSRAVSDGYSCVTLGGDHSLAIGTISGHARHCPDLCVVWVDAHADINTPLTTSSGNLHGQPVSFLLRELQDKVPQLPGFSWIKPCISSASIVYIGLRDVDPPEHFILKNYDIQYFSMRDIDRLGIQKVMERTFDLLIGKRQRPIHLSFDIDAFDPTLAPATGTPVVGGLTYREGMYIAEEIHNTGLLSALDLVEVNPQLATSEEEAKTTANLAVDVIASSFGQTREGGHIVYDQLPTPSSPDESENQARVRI
# assayNotes: in vitro enzyme assay to detect the production of urea directly proportional to the activity of Arginase II; note: in the data most compounds retested in dose-response had high values
# Format: functional
# Design: scale not given: direction of the effect not stated beside the values
# measurementSetup: 33.3 µM
# Percent Effect annotations
# output: bare number, implied unit %

INSERT INTO results (compound, measurednumber) VALUES
  ('CCn1cc2c(n1)CN(CC1CC1)CC2COCC1CC1 (configuration not stated)', -5.36),
  ('CNCC(=O)N1CCCC(c2nccnc2Oc2cccc(F)c2)C1 (configuration not stated)', -3.03),
  ('COCC(=O)NCc1cccc(Br)c1', 1.92);

Okay, now this compound:
Exercise: What Percent Effect appears in the records for this compound with Arginase-2, mitochondrial (Homo sapiens) (UniProt P78540)? CS(=O)(=O)NCc1cn2c(n1)CN(C(=O)c1ccc[nH]1)CC2
Key: 0.233

----------
# Percent Effect annotations
# targetUnderTest: Protein translocase subunit SecA (Escherichia coli (strain K12)) (UniProt P10408)
# Sequence (P10408 whole entry): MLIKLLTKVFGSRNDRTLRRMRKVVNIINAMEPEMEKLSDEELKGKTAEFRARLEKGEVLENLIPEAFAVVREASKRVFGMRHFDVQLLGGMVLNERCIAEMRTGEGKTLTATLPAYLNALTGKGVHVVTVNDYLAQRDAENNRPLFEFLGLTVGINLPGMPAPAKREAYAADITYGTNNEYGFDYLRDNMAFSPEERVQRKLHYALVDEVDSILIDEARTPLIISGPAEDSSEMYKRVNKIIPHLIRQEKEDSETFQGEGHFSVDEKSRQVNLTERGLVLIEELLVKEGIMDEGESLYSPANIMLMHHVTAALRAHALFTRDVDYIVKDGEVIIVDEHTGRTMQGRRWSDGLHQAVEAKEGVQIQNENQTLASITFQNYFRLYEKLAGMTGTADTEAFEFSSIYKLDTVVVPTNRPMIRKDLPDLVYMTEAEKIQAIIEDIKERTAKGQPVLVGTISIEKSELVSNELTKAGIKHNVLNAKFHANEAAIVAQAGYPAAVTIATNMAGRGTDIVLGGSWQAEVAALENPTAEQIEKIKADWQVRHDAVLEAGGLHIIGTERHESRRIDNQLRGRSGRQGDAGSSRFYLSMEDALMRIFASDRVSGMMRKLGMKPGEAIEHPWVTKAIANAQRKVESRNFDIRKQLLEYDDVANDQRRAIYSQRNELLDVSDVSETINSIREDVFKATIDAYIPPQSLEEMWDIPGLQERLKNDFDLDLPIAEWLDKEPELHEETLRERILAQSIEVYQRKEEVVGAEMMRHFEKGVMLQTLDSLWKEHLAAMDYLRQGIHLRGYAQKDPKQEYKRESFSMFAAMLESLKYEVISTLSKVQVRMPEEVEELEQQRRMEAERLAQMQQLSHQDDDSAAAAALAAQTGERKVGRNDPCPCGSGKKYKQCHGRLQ
# assayNotes: Assay to Identify E. coli SecA ATPase Inhibitors
# Type: functional
# Design: scale not given: direction of the effect not stated beside the values
# measurementSetup: 30 µM
Entries with a potency or affinity are not part of this list.
# output: bare number, implied unit %

Some solved entries appear below for comparison.
INSERT INTO results (compound, measuredproperty, unitinfo, measurednumber) VALUES
  ('Cc1cc(NC(=O)NCc2ccccc2OC(F)F)n(C)n1', 'Percent Effect', '%', 1.45),
  ('Cc1cc(-c2cnc(NCc3cccnc3)nc2C(C)C)on1', 'Percent Effect', '%', -6.62),
  ('Oc1ccc(N2CCN(Cc3cc4c(cc3Br)OCCO4)CC2)cc1', 'Percent Effect', '%', -0.859),
  ('CCc1cnc(N2CC3(CCN(C(=O)c4ccoc4)C3)C2)nc1', 'Percent Effect', '%', -7.71),
  ('CCc1nsc(NC2CCCn3nc(CC)nc32)n1 (stereo unspecified)', 'Percent Effect', '%', -6.19);

Exercise: Field request: Percent Effect | item: Cc1cccc2c1OCCC2NCc1c(C)nn(C)c1N(C)C (stereo unspecified)
Key: 1.41

----------
# targetUnderTest: Ubiquitin-activating enzyme e1, putative (Leishmania donovani (strain BPK282A1)) (UniProt E9BSI1)
# Sequence (E9BSI1 as listed by the source): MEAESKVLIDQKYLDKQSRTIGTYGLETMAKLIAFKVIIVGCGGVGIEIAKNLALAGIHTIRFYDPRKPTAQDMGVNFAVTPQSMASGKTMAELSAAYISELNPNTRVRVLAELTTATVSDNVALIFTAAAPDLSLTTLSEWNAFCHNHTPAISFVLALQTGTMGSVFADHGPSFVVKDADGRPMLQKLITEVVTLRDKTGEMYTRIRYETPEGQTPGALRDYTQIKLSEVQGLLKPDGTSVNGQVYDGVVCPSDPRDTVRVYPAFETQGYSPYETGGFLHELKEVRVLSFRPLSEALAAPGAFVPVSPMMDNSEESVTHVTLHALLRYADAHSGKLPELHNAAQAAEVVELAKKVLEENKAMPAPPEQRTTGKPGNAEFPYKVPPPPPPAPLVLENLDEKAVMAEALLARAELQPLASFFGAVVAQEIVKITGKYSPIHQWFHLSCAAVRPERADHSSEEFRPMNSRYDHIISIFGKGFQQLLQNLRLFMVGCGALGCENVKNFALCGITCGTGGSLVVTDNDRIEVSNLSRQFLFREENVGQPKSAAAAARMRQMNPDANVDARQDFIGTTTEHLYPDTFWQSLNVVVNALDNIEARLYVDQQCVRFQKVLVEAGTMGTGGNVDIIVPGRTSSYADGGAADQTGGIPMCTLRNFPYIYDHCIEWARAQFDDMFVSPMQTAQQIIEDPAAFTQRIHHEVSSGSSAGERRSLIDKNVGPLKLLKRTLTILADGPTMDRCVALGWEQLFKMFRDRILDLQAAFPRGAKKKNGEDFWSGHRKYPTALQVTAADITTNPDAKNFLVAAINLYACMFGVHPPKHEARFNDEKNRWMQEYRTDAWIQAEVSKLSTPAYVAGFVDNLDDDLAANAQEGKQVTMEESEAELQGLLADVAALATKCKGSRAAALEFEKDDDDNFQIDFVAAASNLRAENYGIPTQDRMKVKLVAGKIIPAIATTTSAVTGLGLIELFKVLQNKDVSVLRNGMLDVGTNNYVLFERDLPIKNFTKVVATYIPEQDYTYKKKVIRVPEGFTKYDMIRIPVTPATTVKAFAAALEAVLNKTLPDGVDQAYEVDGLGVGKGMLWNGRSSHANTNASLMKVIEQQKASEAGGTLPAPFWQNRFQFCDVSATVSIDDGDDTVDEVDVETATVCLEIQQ
# assayNotes: Leishmania donovani Ubiquitin Activating Enzyme (LdE1)
# Type: functional
# Set-up: scale not given: direction of the effect not stated beside the values
# measurementSetup: 30 µM
Potency and affinity values are given separately.
measuredProperty: Percent Effect (%)
# output: bare number, implied unit %

Some solved entries appear below for comparison.
INSERT INTO results (compound, measurednumber) VALUES
  ('CN(C)CC(=O)N1CCOCC2(C1)CN(c1ccccc1)C(=O)CO2 (centres undefined)', 8),
  ('O=C(NCc1ccccc1)c1nnc2ccc(N3CCOCC3)cc2n1', -1.33),
  ('CC(NC(=O)CSCC#N)c1cccc(NC(=O)c2ccccc2)c1 (centres undefined)', 15.8),
  ('NCc1cnn(-c2ccccc2C(=O)NCc2ccncc2)c1', 6.76),
  ('CN(CC1CC1)c1ccc2ccc(C(=O)NCCN3CCOCC3)cn12', 6.49);

Exercise: Field request: Percent Effect | item: Cc1ccc(C)c(-c2csc(N)c2C#N)c1
Key: -1.33

Exercise: // next record Cn1cc(CCNC(=O)NC2CCS(=O)(=O)C2)cn1 (centres undefined)
Key: -1.39

Exercise: // next record COCC(=O)NC1CC2(CCN(Cc3ccco3)CC2)c2ccccc21 (centres undefined)
Key: 2.7
